Target: human GABA A receptor α5β3γ2 (α5 subunit) (Homo sapiens, UniProt P18507+P31644)
Sequence (P31644 32-462): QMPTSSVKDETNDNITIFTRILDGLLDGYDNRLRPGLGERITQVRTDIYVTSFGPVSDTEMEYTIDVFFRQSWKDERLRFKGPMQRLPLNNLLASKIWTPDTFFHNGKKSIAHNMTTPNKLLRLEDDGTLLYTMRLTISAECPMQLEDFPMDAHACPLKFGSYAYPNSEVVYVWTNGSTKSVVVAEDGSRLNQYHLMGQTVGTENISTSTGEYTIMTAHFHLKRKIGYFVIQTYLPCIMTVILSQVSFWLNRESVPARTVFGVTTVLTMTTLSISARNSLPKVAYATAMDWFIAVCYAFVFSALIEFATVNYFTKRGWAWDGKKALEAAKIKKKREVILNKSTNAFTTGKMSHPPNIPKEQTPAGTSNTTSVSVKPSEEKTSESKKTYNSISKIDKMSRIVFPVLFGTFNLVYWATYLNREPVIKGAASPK
Sequence (P28472 26-473 partner): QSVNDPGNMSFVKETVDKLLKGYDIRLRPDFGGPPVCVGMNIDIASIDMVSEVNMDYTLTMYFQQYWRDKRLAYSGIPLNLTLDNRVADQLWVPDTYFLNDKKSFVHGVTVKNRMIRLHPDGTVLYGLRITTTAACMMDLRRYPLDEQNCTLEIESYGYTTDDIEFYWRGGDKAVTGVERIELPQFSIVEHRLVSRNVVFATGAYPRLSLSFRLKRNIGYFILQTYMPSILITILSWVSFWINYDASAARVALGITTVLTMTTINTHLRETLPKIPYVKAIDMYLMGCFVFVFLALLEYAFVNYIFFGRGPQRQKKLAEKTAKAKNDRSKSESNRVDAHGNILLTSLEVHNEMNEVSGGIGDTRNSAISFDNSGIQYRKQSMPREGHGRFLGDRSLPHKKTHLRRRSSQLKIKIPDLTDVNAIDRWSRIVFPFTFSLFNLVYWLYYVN
Sequence (P18507 40-475): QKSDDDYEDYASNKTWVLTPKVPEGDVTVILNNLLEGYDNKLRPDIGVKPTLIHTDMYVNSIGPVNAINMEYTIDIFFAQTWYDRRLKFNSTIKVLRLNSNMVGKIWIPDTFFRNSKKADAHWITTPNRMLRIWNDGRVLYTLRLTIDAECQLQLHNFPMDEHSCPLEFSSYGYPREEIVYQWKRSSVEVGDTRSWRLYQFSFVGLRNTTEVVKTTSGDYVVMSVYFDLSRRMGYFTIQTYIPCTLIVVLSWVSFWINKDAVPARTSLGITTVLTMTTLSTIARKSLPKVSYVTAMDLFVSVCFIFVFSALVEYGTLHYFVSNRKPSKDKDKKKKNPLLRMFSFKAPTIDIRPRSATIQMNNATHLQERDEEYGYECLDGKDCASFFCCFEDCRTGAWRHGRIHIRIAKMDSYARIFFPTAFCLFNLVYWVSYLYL
Assay: biochemical
Type: binding
Details: competition for [3H]flumazenil binding, HEK293 cells transiently expressing human receptors; means of two determinations; read-out: hKi
Labelling field: enter Met if recorded Ki is less than 8 nM. Enter Not met if it equals or exceeds that cut-off.

[[record]]
substance_smiles = "CC(C)NC(=O)c1ccc(OCc2conc2-c2ccc(F)cc2)nn1"
classification = "Not met"

[[record]]
substance_smiles = "Cc1cc(OCc2c(-c3ccccc3)noc2C)nnc1C(=O)NC1CC1"
classification = "Met"

[[record]]
substance_smiles = "COc1ccc(OCc2c(-c3ccccc3)noc2C)nn1"
classification = "Not met"


Qu. Please determine if Cc1onc(-c2ccccn2)c1COc1ccc(C(=O)N2CCS(=O)(=O)CC2)nn1 is below 8 nM in terms of Ki.
Ans. Not met

Qu. Please determine if Cc1onc(-c2ccc(F)cc2)c1COc1ccc(C(=O)NCC2CC2)nn1 is below 8 nM in terms of Ki.
Ans. Met

Qu. Please determine if Cc1onc(-c2ccccc2)c1COc1ccc(N(C)C)nn1 is below 8 nM in terms of Ki.
Ans. Not met

Qu. Please determine if Cc1onc(-c2ccccc2)c1COc1ccc(NC(=O)C2CCC2)nn1 is below 8 nM in terms of Ki.
Ans. Not met

Qu. Please determine if Cc1onc(-c2ccccc2)c1COc1ccc(C(=O)NC2CCOCC2)nn1 is below 8 nM in terms of Ki.
Ans. Met

Qu. Please determine if CCOC(=O)Nc1ccc(OCc2c(-c3ccccc3)noc2C)nn1 is below 8 nM in terms of Ki.
Ans. Not met
